pIC50: −log10 of the molar value.
Parameter pIC50, tested on UniProt:P30872, listed per item.
Sequence (P30872 whole entry): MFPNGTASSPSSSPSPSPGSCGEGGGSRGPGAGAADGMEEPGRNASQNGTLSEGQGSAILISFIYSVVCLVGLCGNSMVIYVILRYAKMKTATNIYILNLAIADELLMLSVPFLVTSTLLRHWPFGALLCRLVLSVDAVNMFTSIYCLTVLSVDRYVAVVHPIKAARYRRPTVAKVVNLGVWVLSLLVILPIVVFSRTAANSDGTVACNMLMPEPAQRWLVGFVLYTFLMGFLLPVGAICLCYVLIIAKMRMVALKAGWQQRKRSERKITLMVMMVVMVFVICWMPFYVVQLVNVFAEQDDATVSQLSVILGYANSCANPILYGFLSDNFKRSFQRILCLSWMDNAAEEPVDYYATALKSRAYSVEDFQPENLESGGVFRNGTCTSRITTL
MEASURED_METRIC: pIC50

Example results:
CC(C)[C@@H]1NC(=O)[C@H](CCCCN)NC(=O)[C@@H](Cc2c[nH]c3ccccc23)NC(=O)[C@H](Cc2ccc(O)cc2)NC(=O)[C@H](NC(=O)[C@H](N)Cc2ccc3ccccc3c2)CSSC[C@@H](C(=O)N[C@H](C(N)=O)[C@@H](C)O)NC1=O :: 5.80
C[C@@H](O)[C@H](NC(=O)[C@@H]1CSSC[C@@H](NC(=O)[C@@H](N)Cc2ccccc2)C(=O)N[C@@H](Cc2cccnc2)C(=O)N[C@H](Cc2c[nH]c3ccccc23)C(=O)N[C@@H](CCCCN)C(=O)N[C@@H]([C@@H](C)O)C(=O)N1)C(N)=O :: 6.00

a = CC(C)NC(=O)[C@@H]1CSSC[C@@H](NC(=O)[C@@H](N)Cc2ccc3ccccc3c2)C(=O)N[C@@H](Cc2ccc(O)cc2)C(=O)N[C@H](Cc2c[nH]c3ccccc23)C(=O)N[C@@H](CCCCN)C(=O)N[C@@H](C(C)C)C(=O)N1
b = CC(C)[C@@H]1NC(=O)[C@H](CCCCN)NC(=O)[C@@H](Cc2c[nH]c3ccccc23)NC(=O)[C@H](Cc2ccc(O)cc2)NC(=O)[C@H](NC(=O)[C@H](N)Cc2ccc3ccccc3c2)CSSC[C@@H](C(=O)N[C@H](Cc2ccc3ccccc3c2)C(N)=O)NC1=O
Param pair: a , b . Output: the one whose pIC50 is numerically greater. Your answer should be the label of the entry you select.
a

* * *

Parameter pIC50, tested on Somatostatin receptor type 3 (Homo sapiens, UniProt P32745), listed per item.
Sequence (P32745 whole entry): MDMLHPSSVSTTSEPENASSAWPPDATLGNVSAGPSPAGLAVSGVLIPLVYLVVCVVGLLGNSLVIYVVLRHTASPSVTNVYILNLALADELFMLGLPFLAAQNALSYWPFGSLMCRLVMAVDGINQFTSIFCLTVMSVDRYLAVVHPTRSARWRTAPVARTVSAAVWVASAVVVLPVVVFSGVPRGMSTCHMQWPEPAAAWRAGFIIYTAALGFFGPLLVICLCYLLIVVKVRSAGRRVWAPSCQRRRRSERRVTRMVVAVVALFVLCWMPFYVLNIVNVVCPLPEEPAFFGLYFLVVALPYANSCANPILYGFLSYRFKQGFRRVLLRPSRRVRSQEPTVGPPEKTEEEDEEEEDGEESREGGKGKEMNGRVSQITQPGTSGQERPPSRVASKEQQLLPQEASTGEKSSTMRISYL
Positions of bridges follow the written chain, without caps; N, C: chain ends. Non-standard residues stand in square brackets, D forms with d. Residues, ends and D or L forms follow the SMILES beside them. dPhe(4-Cl) = N[C@H](Cc1ccc(Cl)cc1)C(=O)O; d2Nal = N[C@H](Cc1ccc2ccccc2c1)C(=O)O
// field semantics: pIC50 = negative decimal log of concentration (mol/L)

CC(C)[C@@H]1NC(=O)[C@H](CCCCN)NC(=O)[C@@H](Cc2c[nH]c3ccccc23)NC(=O)[C@H](Cc2ccc(O)cc2)NC(=O)[C@H](NC(=O)[C@@H](N)Cc2c[nH]c3ccccc23)CSSC[C@@H](C(=O)N[C@H](Cc2ccc3ccccc3c2)C(N)=O)NC1=O (H-W[dC]Y[dW]KVC[d2Nal]-NH2; disulfide 2-7) :: 6.19

pIC50 reading for CC(C)[C@H](NC(=O)[C@H](CCCCN)NC(=O)[C@@H](Cc1c[nH]c2ccccc12)NC(=O)[C@H](Cc1ccc(O)cc1)NC(=O)[C@@H](Cc1ccc(Cl)cc1)NC(=O)[C@H](N)Cc1ccc2ccccc2c1)C(=O)N[C@@H](Cc1ccccc1)C(=O)N[C@H](C(N)=O)[C@@H](C)O (H-[d2Nal][dPhe(4-Cl)]Y[dW]KVFT-NH2) : 7.05

* * *

TESTED_TARGET: Somatostatin receptor type 5 (Homo sapiens)
Sequence (P35346 whole entry): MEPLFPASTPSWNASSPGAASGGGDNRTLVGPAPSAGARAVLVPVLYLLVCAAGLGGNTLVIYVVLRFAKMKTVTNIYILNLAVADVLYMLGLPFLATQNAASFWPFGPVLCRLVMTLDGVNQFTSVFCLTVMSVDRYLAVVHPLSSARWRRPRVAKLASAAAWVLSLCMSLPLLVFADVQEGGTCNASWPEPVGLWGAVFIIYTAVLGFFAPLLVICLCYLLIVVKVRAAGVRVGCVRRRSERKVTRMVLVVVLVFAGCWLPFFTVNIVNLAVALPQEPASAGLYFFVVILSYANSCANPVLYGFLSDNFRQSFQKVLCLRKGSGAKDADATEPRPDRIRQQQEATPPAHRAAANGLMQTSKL
Positions of bridges follow the written chain, without caps; N, C: chain ends. Non-standard residues stand in square brackets, D forms with d. Residues, ends and D or L forms follow the SMILES beside them. Phe(4-NO2) = N[C@@H](Cc1ccc([N+](=O)[O-])cc1)C(=O)O; dDip = N[C@@H](C(=O)O)C(c1ccccc1)c1ccccc1; Dip = N[C@H](C(=O)O)C(c1ccccc1)c1ccccc1; 2Nal = N[C@@H](Cc1ccc2ccccc2c1)C(=O)O; 3Pal = N[C@@H](Cc1cccnc1)C(=O)O
MEASURED_METRIC: Ki (µM)
# number only, unit µM dropped from output

Example results:
C[C@@H](O)[C@H](NC(=O)[C@@H]1CSSC[C@@H](NC(=O)[C@H](N)Cc2ccccc2)C(=O)N[C@@H](Cc2cccnc2)C(=O)N[C@H](Cc2c[nH]c3ccccc23)C(=O)N[C@@H](CCCCN)C(=O)N[C@@H]([C@@H](C)O)C(=O)N1)C(N)=O :: 1
CC(C)[C@@H]1NC(=O)[C@H](CCCCN)NC(=O)[C@@H](Cc2c[nH]c3ccccc23)NC(=O)[C@H](Cc2ccc(O)cc2)NC(=O)[C@H](NC(=O)[C@@H](N)Cc2ccc([N+](=O)[O-])cc2)CSSC[C@@H](C(=O)N[C@@H](Cc2ccc(O)cc2)C(N)=O)NC1=O (H-[Phe(4-NO2)][dC]Y[dW]KVCY-NH2; disulfide 2-7) :: 0.101

The compound CC(C)[C@@H]1NC(=O)[C@H](CCCCN)NC(=O)[C@@H](Cc2c[nH]c3ccccc23)NC(=O)[C@H](Cc2cccnc2)NC(=O)[C@H](NC(=O)[C@@H](N)Cc2ccc([N+](=O)[O-])cc2)CSSC[C@@H](C(=O)N[C@@H](Cc2ccc(O)cc2)C(N)=O)NC1=O (H-[Phe(4-NO2)][dC][3Pal][dW]KVCY-NH2; disulfide 2-7) , when measured on Somatostatin receptor type 5 (Homo sapiens), yielded Ki of 0.529

The compound CC(C)[C@@H]1NC(=O)[C@H](CCCCN)NC(=O)[C@@H](Cc2c[nH]c3ccccc23)NC(=O)[C@H](Cc2c[nH]cn2)NC(=O)[C@H](NC(=O)[C@@H](N)Cc2ccc3ccccc3c2)CSSC[C@@H](C(=O)N[C@@H](C(N)=O)C(c2ccccc2)c2ccccc2)NC1=O (H-[2Nal][dC]H[dW]KVC[dDip]-NH2; disulfide 2-7) , when measured on Somatostatin receptor type 5 (Homo sapiens), yielded Ki of 1

The compound CC(C)[C@@H]1NC(=O)[C@H](CCCCN)NC(=O)[C@@H](Cc2c[nH]c3ccccc23)NC(=O)[C@H](Cc2cccnc2)NC(=O)[C@H](NC(=O)[C@@H](N)Cc2ccc3ccccc3c2)CSSC[C@@H](C(=O)N[C@H](C(N)=O)C(c2ccccc2)c2ccccc2)NC1=O (H-[2Nal][dC][3Pal][dW]KVC[Dip]-NH2; disulfide 2-7) , when measured on Somatostatin receptor type 5 (Homo sapiens), yielded Ki of 1

The compound CC(C)[C@@H]1NC(=O)[C@H](CCCCN)NC(=O)[C@@H](Cc2c[nH]c3ccccc23)NC(=O)[C@H](Cc2c[nH]cn2)NC(=O)[C@H](NC(=O)[C@@H](N)Cc2ccc3ccccc3c2)CSSC[C@@H](C(=O)N[C@@H](Cc2ccc3ccccc3c2)C(N)=O)NC1=O (H-[2Nal][dC]H[dW]KVC[2Nal]-NH2; disulfide 2-7) , when measured on Somatostatin receptor type 5 (Homo sapiens), yielded Ki of 0.501

The compound CC(C)[C@H](NC(=O)[C@H](CCCCN)NC(=O)[C@@H](Cc1c[nH]c2ccccc12)NC(=O)[C@H](Cc1ccc(O)cc1)NC(=O)[C@@H](Cc1ccc(Cl)cc1)NC(=O)[C@H](N)Cc1ccc2ccccc2c1)C(=O)N[C@@H](Cc1ccccc1)C(=O)N[C@@H](Cc1ccc2ccccc2c1)C(N)=O , when measured on Somatostatin receptor type 5 (Homo sapiens), yielded Ki of 0.178

* * *

TESTED_TARGET: Somatostatin receptor type 2 (Homo sapiens, UniProt P30874)
Sequence (P30874 whole entry): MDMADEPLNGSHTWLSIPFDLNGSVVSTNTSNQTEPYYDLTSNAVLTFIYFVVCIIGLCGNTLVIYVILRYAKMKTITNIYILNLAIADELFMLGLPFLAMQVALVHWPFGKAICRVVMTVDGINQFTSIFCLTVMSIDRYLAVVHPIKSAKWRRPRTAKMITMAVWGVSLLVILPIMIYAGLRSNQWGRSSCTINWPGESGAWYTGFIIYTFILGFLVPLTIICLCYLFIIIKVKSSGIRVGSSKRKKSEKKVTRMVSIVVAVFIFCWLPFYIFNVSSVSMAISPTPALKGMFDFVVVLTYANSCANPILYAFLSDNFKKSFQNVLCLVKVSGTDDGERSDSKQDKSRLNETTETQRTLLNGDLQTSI
Positions of bridges follow the written chain, without caps; N, C: chain ends. Non-standard residues stand in square brackets, D forms with d. Residues, ends and D or L forms follow the SMILES beside them. dPhe(4-Cl) = N[C@H](Cc1ccc(Cl)cc1)C(=O)O; d2Nal = N[C@H](Cc1ccc2ccccc2c1)C(=O)O
MEASURED_METRIC: Ki (nM)

Example results:
CC(C)[C@@H]1NC(=O)[C@H](CCCCN)NC(=O)[C@@H](Cc2c[nH]c3ccccc23)NC(=O)[C@H](Cc2ccc(O)cc2)NC(=O)[C@H](NC(=O)[C@H](N)Cc2ccccc2)C(C)(C)SSC[C@@H](C(=O)N[C@H](C(N)=O)[C@@H](C)O)NC1=O :: 2550
CC(C)[C@@H]1NC(=O)[C@H](CCCCN)NC(=O)[C@@H](Cc2c[nH]c3ccccc23)NC(=O)[C@H](Cc2ccc(O)cc2)NC(=O)[C@H](NC(=O)[C@H](N)Cc2ccc3ccccc3c2)CSSC[C@@H](C(=O)N[C@H](C(N)=O)[C@@H](C)O)NC1=O :: 306
CC(C)[C@@H]1NC(=O)[C@H](CCCCN)NC(=O)[C@@H](Cc2c[nH]c3ccccc23)NC(=O)[C@H](Cc2ccc(O)cc2)NC(=O)[C@H](NC(=O)[C@@H](N)Cc2c[nH]c3ccccc23)CSSC[C@@H](C(=O)N[C@H](Cc2ccc3ccccc3c2)C(N)=O)NC1=O (H-W[dC]Y[dW]KVC[d2Nal]-NH2; disulfide 2-7) :: 77.2
CC(C)[C@@H]1NC(=O)[C@H](CCCCN)NC(=O)[C@@H](Cc2c[nH]c3ccccc23)NC(=O)[C@H](Cc2ccc(O)cc2)NC(=O)[C@H](NC(=O)[C@H](N)Cc2ccc3ccccc3c2)CSSC[C@@H](C(=O)N[C@H](Cc2ccc3ccccc3c2)C(N)=O)NC1=O :: 82.9
CC(C)[C@H](NC(=O)[C@H](CCCCN)NC(=O)[C@@H](Cc1c[nH]c2ccccc12)NC(=O)[C@H](Cc1ccc(O)cc1)NC(=O)[C@@H](Cc1ccc(Cl)cc1)NC(=O)[C@H](N)Cc1ccc2ccccc2c1)C(=O)N[C@@H](Cc1ccccc1)C(=O)N[C@H](C(N)=O)[C@@H](C)O (H-[d2Nal][dPhe(4-Cl)]Y[dW]KVFT-NH2) :: 144

a = CC(C)[C@H](NC(=O)[C@H](CCCCN)NC(=O)[C@@H](Cc1c[nH]c2ccccc12)NC(=O)[C@H](Cc1ccc(O)cc1)NC(=O)[C@@H](Cc1ccc(Cl)cc1)NC(=O)[C@@H](N)Cc1ccccc1)C(=O)N[C@@H](Cc1ccccc1)C(=O)N[C@H](C(N)=O)[C@@H](C)O
b = CC[C@@H]1NC(=O)[C@H](CCCCN)NC(=O)[C@@H](Cc2c[nH]c3ccccc23)NC(=O)[C@H](Cc2ccc(O)cc2)NC(=O)[C@H](NC(=O)[C@H](N)Cc2ccccc2)CSSC[C@@H](C(=O)N[C@H](C(N)=O)[C@@H](C)O)NC1=O
Param pair: a , b . Output: the one whose Ki is numerically greater. Your answer should be the label of the entry you select.
a

Data provenance: ChEMBL document CHEMBL1131316
